test: plasma pharmacokinetics in Japanese patients (HPLC-MS/MS); type: in vivo, human; conditions: human, plasma, oral, 200 mg, 200 mg QW (n = 9); Day 1; geometric mean (coefficient of variation); read-out: Cmax First dose
measurement-kind: Cmax (nM)
Numbers only; they are read as nM.

// query Cmax value for entry NC1(c2ccc(-c3nc4ccn5c(=O)[nH]nc5c4cc3-c3ccccc3)cc2)CCC1 [MK-2206]
439

----------
test: plasma pharmacokinetics in Japanese patients (HPLC-MS/MS); assay type: in vivo, human; conditions: human, plasma, oral, 135 mg, 135 mg QW (n = 3); Day 22; AUC0–168h; geometric mean (coefficient of variation); read-out: AUCt Last dose
measurement-kind: AUC(0-t) (µM·h)
Numbers only; they are read as µM·h.

// query AUC(0-t) value for entry "NC1(c2ccc(-c3nc4ccn5c(=O)[nH]nc5c4cc3-c3ccccc3)cc2)CCC1"
12.8
